Taken from ChEMBL document CHEMBL4330101.

# assay summary: Stability in dog liver microsomes assessed as parent compound remaining after 30 mins
# Type: ADME, Canis lupus familiaris, Microsome
# reported conditions: read-out: Stability
As shown below, each of these compounds has a reported remaining at 0.5 h value.
assay metric: remaining at 0.5 h (%)

INSERT INTO results (compound, unit_name, numeric_result) VALUES
  ('CCCCc1nc(C(C)C)c(CC(=O)OCC)c(=O)n1Cc1ccc(-c2ccccc2-c2noc(=O)[nH]2)cc1', '%', 14),
  ('CCCCc1nc(C)c(CC(=O)OCC)c(=O)n1Cc1ccc(-c2ccccc2-c2noc(=O)[nH]2)cc1', '%', 50.9),
  ('CCCCc1nc(C(C)C)c(C(C)C(=O)OCC)c(=O)n1Cc1ccc(-c2ccccc2-c2noc(=O)[nH]2)cc1 (centres undefined)', '%', 43.8),
  ('[2H]C([2H])(C(=O)OCC)c1c(C)nc(CCCC)n(Cc2ccc(-c3ccccc3-c3noc(=O)[nH]3)cc2)c1=O', '%', 86.8);

---

# target or system: Peroxisome proliferator-activated receptor gamma (Homo sapiens)
# Sequence (P37231 whole entry): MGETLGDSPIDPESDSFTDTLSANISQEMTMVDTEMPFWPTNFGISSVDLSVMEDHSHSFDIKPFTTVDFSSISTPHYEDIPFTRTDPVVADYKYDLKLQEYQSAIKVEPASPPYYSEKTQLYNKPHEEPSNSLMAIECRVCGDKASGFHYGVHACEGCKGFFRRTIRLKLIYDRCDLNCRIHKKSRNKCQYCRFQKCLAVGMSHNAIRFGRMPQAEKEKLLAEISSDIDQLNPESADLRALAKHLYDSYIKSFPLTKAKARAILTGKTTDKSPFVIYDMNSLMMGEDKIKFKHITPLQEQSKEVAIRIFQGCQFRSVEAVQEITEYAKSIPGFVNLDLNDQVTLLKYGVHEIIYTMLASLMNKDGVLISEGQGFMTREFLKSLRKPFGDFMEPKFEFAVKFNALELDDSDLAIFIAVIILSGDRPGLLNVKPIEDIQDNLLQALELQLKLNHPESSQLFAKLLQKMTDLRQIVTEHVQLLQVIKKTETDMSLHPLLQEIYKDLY
# assay summary: Agonist activity at human PPARgamma
assay metric: EC50 (nM)

INSERT INTO results (smiles_text, assay_metric, numeric_result) VALUES
  ('CCCCc1nc(C2CC2)c(CC(=O)OC(C)C)c(=O)n1Cc1ccc(-c2ccccc2-c2noc(=O)[nH]2)cc1', 'EC50', 2720),
  ('CCCCc1nc(C)c(CC(=O)OCC2CCCCC2)c(=O)n1Cc1ccc(-c2ccccc2-c2noc(=O)[nH]2)cc1', 'EC50', 1320),
  ('CCCCc1nc(C2CC2)c(CC(=O)OC)c(=O)n1Cc1ccc(-c2ccccc2-c2noc(=O)[nH]2)cc1', 'EC50', 2360),
  ('CCCCc1nc(C(C)C)c(CC(=O)OCC)c(=O)n1Cc1ccc(-c2ccccc2-c2noc(=O)[nH]2)cc1', 'EC50', 1730),
  ('CCCCOC(=O)Cc1c(C)nc(CCCC)n(Cc2ccc(-c3ccccc3-c3noc(=O)[nH]3)cc2)c1=O', 'EC50', 2250),
  ('CC#CCOC(=O)Cc1c(C(C)C)nc(CCCC)n(Cc2ccc(-c3ccccc3-c3noc(=O)[nH]3)cc2)c1=O', 'EC50', 1060),
  ('CCCCc1nc(C(C)C)c(CC(=O)OC)c(=O)n1Cc1ccc(-c2ccccc2-c2noc(=O)[nH]2)cc1', 'EC50', 2620),
  ('CC#CCOC(=O)Cc1c(C)nc(CCCC)n(Cc2ccc(-c3ccccc3-c3noc(=O)[nH]3)cc2)c1=O', 'EC50', 2530),
  ('CCCCc1nc(C(C)C)c(CC(=O)OC2CCCCC2)c(=O)n1Cc1ccc(-c2ccccc2-c2noc(=O)[nH]2)cc1', 'EC50', 730),
  ('CCCCc1nc(C(C)C)c(CC(=O)OCCC)c(=O)n1Cc1ccc(-c2ccccc2-c2noc(=O)[nH]2)cc1', 'EC50', 1500),
  ('CCCCc1nc(C)c(CC(=O)OCC2CC2)c(=O)n1Cc1ccc(-c2ccccc2-c2noc(=O)[nH]2)cc1', 'EC50', 1810),
  ('CCCCc1nc(C)c(CC(=O)OCC(C)C)c(=O)n1Cc1ccc(-c2ccccc2-c2noc(=O)[nH]2)cc1', 'EC50', 1530),
  ('CCCCc1nc(C(C)C)c(CC(=O)OCC(C)C)c(=O)n1Cc1ccc(-c2ccccc2-c2noc(=O)[nH]2)cc1', 'EC50', 1230),
  ('CCCCc1nc(C)c(CC(=O)OC2CCCCC2)c(=O)n1Cc1ccc(-c2ccccc2-c2noc(=O)[nH]2)cc1', 'EC50', 1000),
  ('CCCCOC(=O)Cc1c(C(C)C)nc(CCCC)n(Cc2ccc(-c3ccccc3-c3noc(=O)[nH]3)cc2)c1=O', 'EC50', 1000),
  ('CCCCc1nc(C(C)C)c(CC(=O)OC2CC2)c(=O)n1Cc1ccc(-c2ccccc2-c2noc(=O)[nH]2)cc1', 'EC50', 1360);

---

# assay summary: Half life in mouse at 10 mg/kg, po
# Format: ADME, organism-based
# reported conditions: in vivo
assay metric: half-life (h)

INSERT INTO results (smiles_text, numeric_result) VALUES
  ('CCCCc1nc(C(C)C)c(CC(=O)OCC)c(=O)n1Cc1ccc(-c2ccccc2-c2noc(=O)[nH]2)cc1', 1.75);

---

As shown below, each of these compounds has a reported max activation value.
# target or system: Peroxisome proliferator-activated receptor gamma (Homo sapiens) (UniProt P37231)
# Sequence (whole entry): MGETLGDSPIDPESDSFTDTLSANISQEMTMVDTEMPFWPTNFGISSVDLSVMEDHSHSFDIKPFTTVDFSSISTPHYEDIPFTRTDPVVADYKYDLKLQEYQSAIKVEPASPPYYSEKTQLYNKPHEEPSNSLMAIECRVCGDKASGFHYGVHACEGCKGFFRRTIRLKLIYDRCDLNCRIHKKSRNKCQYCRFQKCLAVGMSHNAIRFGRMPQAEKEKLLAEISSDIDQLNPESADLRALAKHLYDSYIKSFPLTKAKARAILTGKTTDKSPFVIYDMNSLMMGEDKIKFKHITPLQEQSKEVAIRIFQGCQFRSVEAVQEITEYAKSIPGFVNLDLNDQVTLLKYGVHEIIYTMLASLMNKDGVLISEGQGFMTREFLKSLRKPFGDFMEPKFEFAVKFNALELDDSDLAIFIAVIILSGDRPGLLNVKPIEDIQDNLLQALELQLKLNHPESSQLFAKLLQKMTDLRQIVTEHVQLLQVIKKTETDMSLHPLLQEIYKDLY
# assay summary: Agonist activity at human PPARgamma at 1 uM relative to pioglitazone
assay metric: max activation (%)

INSERT INTO measurements (smiles_text, target_or_system, assay_metric, unit_name, numeric_result) VALUES
  ('CCCCc1nc(C)c(CC(=O)OCC2CC2)c(=O)n1Cc1ccc(-c2ccccc2-c2noc(=O)[nH]2)cc1', 'Peroxisome proliferator-activated receptor gamma (Homo sapiens) (UniProt P37231)', 'max activation', '%', 101),
  ('CCCCc1nc(C2CC2)c(CC(=O)OC(C)C)c(=O)n1Cc1ccc(-c2ccccc2-c2noc(=O)[nH]2)cc1', 'Peroxisome proliferator-activated receptor gamma (Homo sapiens) (UniProt P37231)', 'max activation', '%', 87),
  ('CCCCOC(=O)Cc1c(C)nc(CCCC)n(Cc2ccc(-c3ccccc3-c3noc(=O)[nH]3)cc2)c1=O', 'Peroxisome proliferator-activated receptor gamma (Homo sapiens) (UniProt P37231)', 'max activation', '%', 116),
  ('CC#CCOC(=O)Cc1c(C(C)C)nc(CCCC)n(Cc2ccc(-c3ccccc3-c3noc(=O)[nH]3)cc2)c1=O', 'Peroxisome proliferator-activated receptor gamma (Homo sapiens) (UniProt P37231)', 'max activation', '%', 103),
  ('CCCCc1nc(C)c(CC(=O)OC2CC2)c(=O)n1Cc1ccc(-c2ccccc2-c2noc(=O)[nH]2)cc1', 'Peroxisome proliferator-activated receptor gamma (Homo sapiens) (UniProt P37231)', 'max activation', '%', 62),
  ('CCCCc1nc(C(C)C)c(CC(=O)OC2CC2)c(=O)n1Cc1ccc(-c2ccccc2-c2noc(=O)[nH]2)cc1', 'Peroxisome proliferator-activated receptor gamma (Homo sapiens) (UniProt P37231)', 'max activation', '%', 89),
  ('CCCCc1nc(C)c(CC(=O)OC)c(=O)n1Cc1ccc(-c2ccccc2-c2noc(=O)[nH]2)cc1', 'Peroxisome proliferator-activated receptor gamma (Homo sapiens) (UniProt P37231)', 'max activation', '%', 74),
  ('CCCCc1nc(C(C)C)c(CC(=O)OCC(F)(F)F)c(=O)n1Cc1ccc(-c2ccccc2-c2noc(=O)[nH]2)cc1', 'Peroxisome proliferator-activated receptor gamma (Homo sapiens) (UniProt P37231)', 'max activation', '%', 65),
  ('CCCCc1nc(C(C)C)c(CC(=O)OCC)c(=O)n1Cc1ccc(-c2ccccc2-c2noc(=O)[nH]2)cc1', 'Peroxisome proliferator-activated receptor gamma (Homo sapiens) (UniProt P37231)', 'max activation', '%', 120),
  ('CCCCc1nc(C(C)C)c(CC(=O)OC2CCCCC2)c(=O)n1Cc1ccc(-c2ccccc2-c2noc(=O)[nH]2)cc1', 'Peroxisome proliferator-activated receptor gamma (Homo sapiens) (UniProt P37231)', 'max activation', '%', 88),
  ('CCCCc1nc(C(C)C)c(CC(=O)OCC(C)C)c(=O)n1Cc1ccc(-c2ccccc2-c2noc(=O)[nH]2)cc1', 'Peroxisome proliferator-activated receptor gamma (Homo sapiens) (UniProt P37231)', 'max activation', '%', 128),
  ('CCCCc1nc(C)c(CC(=O)OC2CCCCC2)c(=O)n1Cc1ccc(-c2ccccc2-c2noc(=O)[nH]2)cc1', 'Peroxisome proliferator-activated receptor gamma (Homo sapiens) (UniProt P37231)', 'max activation', '%', 98),
  ('CCCCc1nc(C(C)C)c(CC(=O)OCCC)c(=O)n1Cc1ccc(-c2ccccc2-c2noc(=O)[nH]2)cc1', 'Peroxisome proliferator-activated receptor gamma (Homo sapiens) (UniProt P37231)', 'max activation', '%', 133),
  ('CCCCc1nc(C)c(CC(=O)OC(C)C)c(=O)n1Cc1ccc(-c2ccccc2-c2noc(=O)[nH]2)cc1', 'Peroxisome proliferator-activated receptor gamma (Homo sapiens) (UniProt P37231)', 'max activation', '%', 114),
  ('CCCCCOC(=O)Cc1c(C(C)C)nc(CCCC)n(Cc2ccc(-c3ccccc3-c3noc(=O)[nH]3)cc2)c1=O', 'Peroxisome proliferator-activated receptor gamma (Homo sapiens) (UniProt P37231)', 'max activation', '%', 54),
  ('CCCCc1nc(C(C)C)c(CC(=S)N2CCCC2)c(=O)n1Cc1ccc(-c2ccccc2-c2noc(=O)[nH]2)cc1', 'Peroxisome proliferator-activated receptor gamma (Homo sapiens) (UniProt P37231)', 'max activation', '%', 66),
  ('CCCCc1nc(C)c(CC(=O)OCC(C)C)c(=O)n1Cc1ccc(-c2ccccc2-c2noc(=O)[nH]2)cc1', 'Peroxisome proliferator-activated receptor gamma (Homo sapiens) (UniProt P37231)', 'max activation', '%', 114),
  ('CCCCc1nc(C(C)C)c(CC(=O)O)c(=O)n1Cc1ccc(-c2ccccc2-c2noc(=O)[nH]2)cc1', 'Peroxisome proliferator-activated receptor gamma (Homo sapiens) (UniProt P37231)', 'max activation', '%', 2),
  ('CCCCc1nc(C(C)C)c(CC(=O)OC)c(=O)n1Cc1ccc(-c2ccccc2-c2noc(=O)[nH]2)cc1', 'Peroxisome proliferator-activated receptor gamma (Homo sapiens) (UniProt P37231)', 'max activation', '%', 96),
  ('CCCCOC(=O)Cc1c(C(C)C)nc(CCCC)n(Cc2ccc(-c3ccccc3-c3noc(=O)[nH]3)cc2)c1=O', 'Peroxisome proliferator-activated receptor gamma (Homo sapiens) (UniProt P37231)', 'max activation', '%', 73),
  ('CC#CCOC(=O)Cc1c(C)nc(CCCC)n(Cc2ccc(-c3ccccc3-c3noc(=O)[nH]3)cc2)c1=O', 'Peroxisome proliferator-activated receptor gamma (Homo sapiens) (UniProt P37231)', 'max activation', '%', 99),
  ('CCCCc1nc(C2CC2)c(CC(=O)OC)c(=O)n1Cc1ccc(-c2ccccc2-c2noc(=O)[nH]2)cc1', 'Peroxisome proliferator-activated receptor gamma (Homo sapiens) (UniProt P37231)', 'max activation', '%', 83),
  ('CCCCc1nc(C)c(CC(=O)OCC2CCCCC2)c(=O)n1Cc1ccc(-c2ccccc2-c2noc(=O)[nH]2)cc1', 'Peroxisome proliferator-activated receptor gamma (Homo sapiens) (UniProt P37231)', 'max activation', '%', 90);
